So I've got a bunch of compounds here, and I need their inhibition at 300 µM values.
Target: rat NaPi-2b (Rattus norvegicus, UniProt Q9JJ09)
Construct: expressed in transfected cells; host or cells: Xenopus oocytes injected with cRNA
Sequence (Q9JJ09 1-695): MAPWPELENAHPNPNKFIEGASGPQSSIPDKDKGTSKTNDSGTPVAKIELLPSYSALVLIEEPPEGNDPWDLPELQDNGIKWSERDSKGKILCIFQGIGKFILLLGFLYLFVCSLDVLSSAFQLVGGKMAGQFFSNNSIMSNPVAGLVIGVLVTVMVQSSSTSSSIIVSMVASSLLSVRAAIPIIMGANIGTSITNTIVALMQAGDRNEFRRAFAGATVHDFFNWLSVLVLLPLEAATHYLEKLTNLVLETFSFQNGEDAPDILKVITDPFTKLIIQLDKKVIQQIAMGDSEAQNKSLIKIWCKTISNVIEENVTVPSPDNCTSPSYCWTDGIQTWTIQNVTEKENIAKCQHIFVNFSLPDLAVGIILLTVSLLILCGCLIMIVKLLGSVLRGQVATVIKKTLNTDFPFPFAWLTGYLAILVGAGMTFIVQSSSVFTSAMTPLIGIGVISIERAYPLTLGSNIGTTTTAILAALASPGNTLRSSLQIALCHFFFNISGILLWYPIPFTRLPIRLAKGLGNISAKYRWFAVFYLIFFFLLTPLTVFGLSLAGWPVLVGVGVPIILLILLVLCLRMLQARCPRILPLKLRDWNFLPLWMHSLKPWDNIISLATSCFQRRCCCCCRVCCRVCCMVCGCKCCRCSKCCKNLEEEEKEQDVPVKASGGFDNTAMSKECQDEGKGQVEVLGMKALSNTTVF
Assay: Sodium-dependent phosphate uptake of Xenopus oocytes which expressed NaPi-2b (32P)
Format: cell-based
Conditions: phosphate uptake, oocytes expressing rat NaPi-2b; 300 μM, determined from inhibition curve
// note: answer is a bare numeric in %

Identify measured inhibition at 300 µM associated with COc1ccc(C(=O)Nc2sc(C)cc2C(=O)N/N=C/c2ccc(Cl)c(C(F)(F)F)c2)cc1OC 57.7

Read the entry CCN(CC)Cc1cccc(C(=O)Nc2ccc(Cl)cc2C(=O)NOCc2ccccc2)c1 and write its reported inhibition at 300 µM. 40.2

Look up inhibition at 300 µM of Cc1ccc(/C=N/NC(=O)c2scc(C)c2NC(=O)c2cccc(CN(CC(C)O)CC(C)O)c2)cc1 (stereo not shown) and report it. 38.4

Tell us which inhibition at 300 µM value is on record for CCSCCNCc1ccc(C(=O)Nc2ccc(Br)cc2C(=O)N/N=C/c2cccc(OC)c2)cc1 85.1

====

Target: human NaPi-2a (Homo sapiens)
Sequence (Q06495 1-639): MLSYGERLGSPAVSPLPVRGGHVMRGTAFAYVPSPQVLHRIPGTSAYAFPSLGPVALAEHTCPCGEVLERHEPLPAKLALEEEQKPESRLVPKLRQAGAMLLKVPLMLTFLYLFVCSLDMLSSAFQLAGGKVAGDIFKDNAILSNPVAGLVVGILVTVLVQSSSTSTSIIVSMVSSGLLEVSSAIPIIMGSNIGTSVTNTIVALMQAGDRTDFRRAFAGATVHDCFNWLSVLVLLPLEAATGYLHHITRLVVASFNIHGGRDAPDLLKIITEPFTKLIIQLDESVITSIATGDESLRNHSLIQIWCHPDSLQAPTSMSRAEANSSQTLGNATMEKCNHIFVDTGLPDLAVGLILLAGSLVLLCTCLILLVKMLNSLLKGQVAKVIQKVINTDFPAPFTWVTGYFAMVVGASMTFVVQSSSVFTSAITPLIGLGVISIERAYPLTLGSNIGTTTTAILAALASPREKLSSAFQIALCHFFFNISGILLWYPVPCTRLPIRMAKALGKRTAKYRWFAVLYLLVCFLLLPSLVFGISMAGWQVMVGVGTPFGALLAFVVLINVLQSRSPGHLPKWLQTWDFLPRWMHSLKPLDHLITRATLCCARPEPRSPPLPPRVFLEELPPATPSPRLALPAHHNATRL
Assay: Sodium-dependent phosphate uptake of Xenopus oocytes which expressed NaPi-2a (32P)
Settings: phosphate uptake, Xenopus oocytes expressing human NaPi-2a; five concentration levels
Source text: Experiment of Sodium-Dependent Phosphate Uptake of Xenopus oocytes which Expressed NaPi-2a In the test, a group with the addition of choline chloride (Choline Cl) was used as a negative control for nonspecific uptake, and PFA (phosphonoformic acid) was used as a positive control for phosphate transport inhibition.
For each of the compounds below, state its pIC50.
Scale note: pIC50 = -log10(concentration in M).

Consider the compound COc1ccc(/C=N/NC(=O)c2c(NC(=O)c3cccc(CN4CCC(O)CC4)c3)sc3c2CCCC3)cc1 [Compound 638] and give its recorded pIC50. 5.37

Query pIC50 for Cc1csc(NC(=O)c2cccc(CN3CCN(c4ncccn4)CC3)c2)c1C(=O)N/N=C/c1ccc(F)cc1 [Compound 828] 5.00

Fill in pIC50 for record COc1ccc(/C=N/NC(=O)c2c(C)csc2NC(=O)c2cccc(CN(CC(C)O)CC(C)O)c2)cc1 (stereo not shown) [Compound 592] 5.02

Assign pIC50 to the following record: CCN(CC)CCN(CCN(CC)CC)Cc1cccc(C(=O)Nc2scc(C)c2C(=O)N/N=C/c2ccc(C)c(C)c2)c1 [Compound 838] 4.99

Supply pIC50 value. Item: COc1ccc(NC(=O)c2cccc(CSCC(O)CO)c2)c(C(=O)N/N=C/c2ccc(Cl)c(C(F)(F)F)c2)c1 (stereo not shown) [Compound 1020] 5.65
